Source: PubChem BioAssay AID1963836

# Test system: 857933-349-R-J2-PDC complex spheroid viability;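 also: spheroids exposed to compounds for seven days before readout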
# protocol summary: Anticancer human tumor 857933-349-R-J2-PDC patient-derived colon adenocarcinoma cell line growth inhibition [POLQ]
# test settings: second compound 1 µM; first compound 0.0316 µM; stronger effect = lower value
experimental readout: viability, T/C (%)
Response body: numeric value in %, unit text excluded.

| compound | measured |
| --- | --- |
| COc1cc2cc(C(=O)CCC(=O)O)sc2cc1OC + Nc1ccc(C#CCN(C(=O)Cc2ncc(C(F)(F)F)cc2C(F)(F)F)c2ccc(F)cc2)nn1 | 103 |
| Nc1ccn(C2OC(CO)C(O)C2(F)F)c(=O)n1 (stereo unspecified) + COC1C(OC(N)=O)C(O)C(Oc2ccc3c(O)c(NC(=O)c4ccc(O)c(CC=C(C)C)c4)c(=O)oc3c2C)OC1(C)C | 74.1 |
| CC1COCCN1c1cc(C2(O)CC3CCC(C2)O3)c2cnn(-c3ccn[nH]3)c2n1 (stereo unspecified) + Nc1ccc(C#CCN(C(=O)Cc2ncc(C(F)(F)F)cc2C(F)(F)F)c2ccc(F)cc2)nn1 | 78 |
| COc1cccc(OCCCN)c1-c1cc(Nc2cnc(C#N)cn2)n[nH]1 + Cc1cccc(N(C)C(=O)C2C(O)CCN2c2nc(C)cc(C(F)(F)F)c2C#N)c1 | 85.6 |
| CC1COCCN1c1cc(-c2ccnn2C)c2ccnc(-c3ccn[nH]3)c2n1 (stereo unspecified) + Cc1cccc(N(C)C(=O)C2C(O)CCN2c2nc(C)cc(C(F)(F)F)c2C#N)c1 | 58.9 |

Next:
Record lookup: for 857933-349-R-J2-PDC complex spheroid viability, what viability, T/C belongs to CCc1c2c(nc3ccc(O)cc13)-c1cc3c(c(=O)n1C2)COC(=O)[C@]3(O)CC + Nc1ccc(C#CCN(C(=O)Cc2ncc(C(F)(F)F)cc2C(F)(F)F)c2ccc(F)cc2)nn1 ?
24.9
